Origin of values: patent US20250340658A1

- Target or test system: T1, full length human GLP-1R with N-terminal FLAG tag and C-terminal GFP tag, on CHO cells (human, UniProt P43220 24-463)
- T1 construct: whole, on cells; the cell line itself is tied to UniProt P43220; also called FLAG-GLP-1R-GFP; CHO-GLP-1R
- Method: flow cytometry titration, CHO GLP1R cells
Metric: Bmax
Just the number, please, no unit after it.

Task: Field request: Bmax | item: GLP1R-221-084 (antibody, V domains shown, IgG) VH: QVQLVESGGGVVQPGRSLRLSCAASGFAFSNYGMHWVRQAPGKGLEWVAVISSDENNKYYADSVKGRFTISRDNSKNTLYLQMNSLRAEDTAVYYCAKHMSMQEGAVTGEMQAAKEFIAWLVKGRVRADLVGDAFDVWGQGTLVTVSS VL: QSVLTQPPSVSAAPGQKVTISCSGSSSNIADNYVSWYQQLPGTAPKLLIYENNRRPSGIPDRFSGSKSGTSATLGITGLQTGDEADYYCGTWDVSLSVGMFGGGTKLTVL
Result: 287000
